molecular target: Prolyl endopeptidase FAP (Homo sapiens); test: hFAP Binding Assay; details: read-out: kon (M-1-s-1)
Sequence (Q12884 whole entry): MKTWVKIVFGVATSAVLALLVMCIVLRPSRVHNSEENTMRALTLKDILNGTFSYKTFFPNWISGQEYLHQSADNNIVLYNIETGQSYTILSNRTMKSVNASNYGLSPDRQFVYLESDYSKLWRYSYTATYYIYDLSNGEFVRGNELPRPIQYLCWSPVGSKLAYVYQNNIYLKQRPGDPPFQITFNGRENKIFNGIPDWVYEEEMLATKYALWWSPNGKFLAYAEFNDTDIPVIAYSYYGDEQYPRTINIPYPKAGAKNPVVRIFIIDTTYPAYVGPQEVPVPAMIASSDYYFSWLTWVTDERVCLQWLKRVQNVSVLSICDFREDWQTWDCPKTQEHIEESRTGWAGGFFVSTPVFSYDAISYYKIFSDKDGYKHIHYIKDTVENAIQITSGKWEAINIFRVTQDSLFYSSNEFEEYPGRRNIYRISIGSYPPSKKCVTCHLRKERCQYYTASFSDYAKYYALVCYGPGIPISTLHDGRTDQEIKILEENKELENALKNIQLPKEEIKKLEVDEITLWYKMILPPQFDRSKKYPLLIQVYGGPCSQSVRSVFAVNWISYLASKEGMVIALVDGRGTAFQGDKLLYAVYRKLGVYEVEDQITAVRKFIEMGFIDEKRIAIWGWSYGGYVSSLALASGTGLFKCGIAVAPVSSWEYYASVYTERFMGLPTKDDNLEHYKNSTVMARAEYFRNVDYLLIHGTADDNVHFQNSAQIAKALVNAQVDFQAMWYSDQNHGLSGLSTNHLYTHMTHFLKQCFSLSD
metric: kon
Param answer (str): number followed by unit.

COC[C@@H]1CCCN1c1ccc2nccc(C(=O)NCC(=O)N3CSC[C@H]3C#N)c2c1 : 3.3e+06 M⁻¹ s⁻¹
COC[C@H]1[C@H](C)OCCN1c1ccc2nccc(C(=O)NCC(=O)N3CSC[C@H]3C#N)c2c1 : 4e+06 M⁻¹ s⁻¹
N#C[C@@H]1CSCN1C(=O)CNC(=O)c1ccnc2ccc(N3C[C@H](F)[C@@H](F)C3)cc12 : 4.4e+06 M⁻¹ s⁻¹

// next entry
The compound N#C[C@@H]1CSCN1C(=O)CNC(=O)c1ccnc2ccc(N3CCC[C@@H]3C3CC3)cc12 showed kon equal to 2.3e+06 M⁻¹ s⁻¹
